// map logP onto a label; ranges lower range (below 0.2), middle range (0.2 to below 2), upper range (2 or more)

INSERT INTO measurements (molecule, group_label) VALUES
  ('CC(C)(C)C1(O)CCN2CC3c4ccccc4CCc4cccc(c43)C2C1 (centres undefined)', 'upper range'),
  ('O=C(O)Cc1ccccc1Oc1ccc(Cl)cc1Cl', 'upper range'),
  ('Cc1ccccc1OC(=O)c1ccc(N)cc1O', 'upper range'),
  ('C=CCO', 'lower range'),
  ('Nc1cccc(N)c1', 'lower range');

Asked: Would you mind sorting CN(C)C(N(C)C)=S(I)c1ccccc1Br (centres undefined) into the appropriate category?
Given back: lower range

Asked: Would you mind sorting CC(=O)C=Cc1ccccc1 into the appropriate category?
Given back: upper range

Asked: Would you mind sorting COC1C(O)C(C)OC(OC2CCC3(C)C(CCC4C3CCC3(C)C(C5=CC(=O)OC5)CCC43O)C2)C1O (centres undefined) into the appropriate category?
Given back: upper range

Asked: Would you mind sorting C=C1C(=O)OC2CC(C)C3CC(=O)C(CC12)C1(C3)C(=O)OC2CC(C)C3C=CC(=O)C3C(C)(O)C21 (centres undefined) into the appropriate category?
Given back: middle range

Asked: Would you mind sorting CC(=O)Oc1ccccc1[N+](=O)[O-] into the appropriate category?
Given back: middle range

Asked: Would you mind sorting CCC(Br)C(=O)O (centres undefined) into the appropriate category?
Given back: middle range

Asked: Would you mind sorting O=Cc1cccc(C(F)(F)F)c1 into the appropriate category?
Given back: upper range

Asked: Would you mind sorting CCOCCO into the appropriate category?
Given back: lower range

Asked: Would you mind sorting C=CC#N into the appropriate category?
Given back: middle range

====

Quantity measured: logP
Lab note: record the figure alone, no unit after it.

INSERT INTO results (compound, measured_number) VALUES
  ('CC(=O)Cc1ccccc1', 1.44),
  ('O=C(CN1CCCCC1)Nc1ccccc1[N+](=O)[O-]', 2.75);

Asked: # return recorded logP for entry COC(=O)c1ccccc1N
Given back: 1.88

Asked: # return recorded logP for entry NC(=O)C1CCCN1C(=O)C(Cc1cn(C(=O)OC2CCCCC2)cn1)NC(=O)C1CCC(=O)N1 (stereo not drawn)
Given back: 0.6

Asked: # return recorded logP for entry Clc1cc(Cl)c(Cl)nc1Cl
Given back: 3.32

Asked: # return recorded logP for entry NNC(=O)c1ccnc(-c2ccccc2)c1
Given back: 1.36

====

// map logP onto a label; ranges lowest: < 0.7; middle: ≥ 0.7 and < 3; highest: ≥ 3

Consider the following illustrative entries.
INSERT INTO measurements (molecule, group_label) VALUES
  ('NC(Cc1c[nH]c2cccc(F)c12)C(=O)O (stereo not given)', 'lowest'),
  ('c1ccc2[nH]cnc2c1', 'middle'),
  ('O=C(CN1CCCCC1)Nc1ccccc1', 'middle'),
  ('O=[N+]([O-])c1ccc(OCC(O)CNCC(O)COc2ccccc2)cc1 (stereo not given)', 'middle'),
  ('Nc1ccc(Cl)cc1', 'middle'),
  ('FC(F)(F)c1nc2cc(Cl)c(Cl)cc2[nH]1', 'highest'),
  ('Nc1nc(N)nc(-c2ccccc2I)n1', 'middle'),
  ('Nc1nc(N)nc(-c2ccccc2)n1', 'middle'),
  ('C=C(C)C(=O)OCCO', 'lowest'),
  ('CC(C)(C)c1cccc(C(C)(C)C)n1', 'highest');

Asked: Would you mind sorting Cc1cccc(C(=O)NN)c1 into the appropriate category?
Given back: middle

Asked: Would you mind sorting O=Ic1ccccc1 into the appropriate category?
Given back: lowest

Asked: Would you mind sorting COP(=S)(OC)Oc1nc(Cl)c(Cl)cc1Cl into the appropriate category?
Given back: highest

Asked: Would you mind sorting COC(=O)c1ccccc1OC(C)=O into the appropriate category?
Given back: middle

Asked: Would you mind sorting c1cnc2ncncc2n1 into the appropriate category?
Given back: lowest
